Assay: In vivo pharmacokinetics in rats
Conditions: plasma; rat, IV, DT 5 mg/kg

[
  {
    "MOLECULE": "CC(=O)O[C@@]12CO[C@@H]1C[C@H](O)[C@@]1(C)C(=O)[C@H](O)C3=C(C)[C@@H](OC(=O)[C@H](O)[C@@H](NC(=O)OC(C)(C)C)c4ccccc4)C[C@@](O)([C@@H](OC(=O)c4ccccc4)[C@H]21)C3(C)C [DT, Docetaxel]",
    "Cmax": "479 ng/mL"
  }
]

----------
Assay: In vivo pharmacokinetics in rats
Conditions: plasma; rat, oral, DT 10 mg/kg; read-out: T1/2 of DT (converted)

[
  {
    "GIVEN_SMILES": "CC(=O)O[C@@]12CO[C@@H]1C[C@H](O)[C@@]1(C)C(=O)[C@H](O)C3=C(C)[C@@H](OC(=O)[C@H](O)[C@@H](NC(=O)OC(C)(C)C)c4ccccc4)C[C@@](O)([C@@H](OC(=O)c4ccccc4)[C@H]21)C3(C)C",
    "half-life, h": 8.67
  }
]

----------
Test: In vivo pharmacokinetics in rats
Conditions: plasma; rat, oral, DT 10 mg/kg; read-out: AUCinf of DT

[
  {
    "COMPOUND": "CC(=O)O[C@@]12CO[C@@H]1C[C@H](O)[C@@]1(C)C(=O)[C@H](O)C3=C(C)[C@@H](OC(=O)[C@H](O)[C@@H](NC(=O)OC(C)(C)C)c4ccccc4)C[C@@](O)([C@@H](OC(=O)c4ccccc4)[C@H]21)C3(C)C [DT, Docetaxel]",
    "U": "ng·h/mL",
    "AUC(0-inf)": 264
  }
]

----------
Test: In vivo pharmacokinetics in rats
Conditions: plasma; rat, IV, DT 5 mg/kg; read-out: T1/2 of DT (converted)
Protocol: Pharmacokinetic parameters were calculated using a non-compartmental analysis model with WinNonlin® software version 5.3 (Pharsight Corp., Mountain View, CA, USA). All quantitative data are presented as mean ± standard deviation (SD) or standard error of the mean (SEM), as indicated. Statistical analyses were performed using one-way analysis of variance (ANOVA) to assess differences among groups, followed by Tukey’s post hoc test for multiple comparisons. […]
READOUT_NAME: half-life (h)

[
  {
    "GIVEN_SMILES": "CC(=O)O[C@@]12CO[C@@H]1C[C@H](O)[C@@]1(C)C(=O)[C@H](O)C3=C(C)[C@@H](OC(=O)[C@H](O)[C@@H](NC(=O)OC(C)(C)C)c4ccccc4)C[C@@](O)([C@@H](OC(=O)c4ccccc4)[C@H]21)C3(C)C",
    "READOUT_NAME": "half-life",
    "MEASURED_VALUE": 8.33
  }
]

----------
Test: In vivo pharmacokinetics in rats
Details: plasma; rat, IV, DT 5 mg/kg; read-out: AUClast of DT

[
  {
    "COMPOUND": "CC(=O)O[C@@]12CO[C@@H]1C[C@H](O)[C@@]1(C)C(=O)[C@H](O)C3=C(C)[C@@H](OC(=O)[C@H](O)[C@@H](NC(=O)OC(C)(C)C)c4ccccc4)C[C@@](O)([C@@H](OC(=O)c4ccccc4)[C@H]21)C3(C)C [DT, Docetaxel]",
    "AUC(0-t)": "1450 ng·h/mL"
  }
]

----------
Experiment: In vivo pharmacokinetics in rats
Settings: plasma; rat, IV, DT 5 mg/kg; read-out: AUCinf of DT
READOUT_NAME: AUC(0-inf) (ng·h/mL)

[
  {
    "GIVEN_SMILES": "CC(=O)O[C@@]12CO[C@@H]1C[C@H](O)[C@@]1(C)C(=O)[C@H](O)C3=C(C)[C@@H](OC(=O)[C@H](O)[C@@H](NC(=O)OC(C)(C)C)c4ccccc4)C[C@@](O)([C@@H](OC(=O)c4ccccc4)[C@H]21)C3(C)C",
    "MEASURED_VALUE": 4190
  }
]
